Reference source: patent US20260242735A1

- TARGET UNDER TEST: human CD33 F44D (human, UniProt P20138 18-364)
- Sequence (P20138 18-364 F44D limits assumed): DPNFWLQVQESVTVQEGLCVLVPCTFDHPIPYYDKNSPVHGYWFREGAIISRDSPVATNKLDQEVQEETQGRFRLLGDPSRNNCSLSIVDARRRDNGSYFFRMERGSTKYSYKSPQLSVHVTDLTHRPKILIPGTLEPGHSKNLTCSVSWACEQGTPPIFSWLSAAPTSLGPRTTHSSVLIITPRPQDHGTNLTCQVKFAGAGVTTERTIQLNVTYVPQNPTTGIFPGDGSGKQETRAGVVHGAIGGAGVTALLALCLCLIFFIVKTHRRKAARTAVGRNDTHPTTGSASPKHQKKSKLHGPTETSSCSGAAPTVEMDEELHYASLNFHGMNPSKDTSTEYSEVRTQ
- EXPERIMENT SUMMARY: flow cytometry, mutant on cells, IgG
REPORTED PROPERTY: Mean % WT Binding (% WT binding)
Write the number in % WT binding without appending the unit.

Consider the following illustrative entries.
{"BINDER": "Refmab #3 (antibody, human IgG1, V domains shown, Tested in IgG format; human IgG1 Fc silent (PG-LALA)) VH: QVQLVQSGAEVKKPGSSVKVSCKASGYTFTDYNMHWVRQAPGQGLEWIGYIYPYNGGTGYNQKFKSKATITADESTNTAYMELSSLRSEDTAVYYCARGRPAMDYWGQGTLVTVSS VL: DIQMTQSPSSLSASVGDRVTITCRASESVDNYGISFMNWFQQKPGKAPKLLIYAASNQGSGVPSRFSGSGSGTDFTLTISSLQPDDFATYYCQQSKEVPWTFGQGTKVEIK", "QUANTITATIVE READOUT": 1.2}
{"BINDER": "Refmab #2 (antibody, human IgG1, V domains shown, Tested in IgG format; human IgG1 Fc silent (PG-LALA)) VH: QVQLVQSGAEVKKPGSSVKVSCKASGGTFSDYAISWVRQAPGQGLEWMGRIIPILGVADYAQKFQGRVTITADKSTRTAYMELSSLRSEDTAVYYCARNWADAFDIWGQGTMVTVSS VL: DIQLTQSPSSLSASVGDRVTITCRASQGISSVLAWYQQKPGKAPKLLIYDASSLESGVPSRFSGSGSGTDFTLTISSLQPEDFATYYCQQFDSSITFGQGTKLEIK", "QUANTITATIVE READOUT": 2}
{"BINDER": "Refmab #1 (antibody, human IgG1, V domains shown, Tested in IgG format; human IgG1 (Absolute Antibody hP67.6, Cat. No. Ab00283-10.0); also called hP67.6) VH: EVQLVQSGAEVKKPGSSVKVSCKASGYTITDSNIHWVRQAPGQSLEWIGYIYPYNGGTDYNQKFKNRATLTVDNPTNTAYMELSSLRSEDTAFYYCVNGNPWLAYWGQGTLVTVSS VL: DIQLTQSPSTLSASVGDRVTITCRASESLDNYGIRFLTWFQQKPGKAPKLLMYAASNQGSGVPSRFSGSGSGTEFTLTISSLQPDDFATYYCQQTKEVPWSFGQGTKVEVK", "QUANTITATIVE READOUT": 98.9}

Please look at the following binder next.
Would you kindly share the measured Mean % WT Binding for Refmab #4 (antibody, human IgG1, V domains shown, Tested in IgG format; human IgG1 Fc silent (PG-LALA)) VH: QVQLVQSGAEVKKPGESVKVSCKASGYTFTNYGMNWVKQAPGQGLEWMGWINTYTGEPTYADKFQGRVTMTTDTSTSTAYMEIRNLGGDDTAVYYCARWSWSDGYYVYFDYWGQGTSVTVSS VL: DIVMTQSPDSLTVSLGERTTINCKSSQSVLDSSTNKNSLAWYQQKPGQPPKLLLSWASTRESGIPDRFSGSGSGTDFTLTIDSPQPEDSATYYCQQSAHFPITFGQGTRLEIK ?
110
